settings: basic group
In this section we review reported pKa values for a set of compounds.
Quantity name: pKa

[[record]]
compound = "Nc1ncnc2nc[nH]c12"
measured_number = 4.2

[[record]]
compound = "CN1CCCC(C(=O)[O-])C1 (configuration not stated)"
measured_number = 9.7

[[record]]
compound = "O=C(NNc1ccc(Br)cc1)c1ccncc1"
measured_number = 4.03

[[record]]
compound = "S=c1[nH]c(SCc2ccccc2)c(-c2ccccc2)[nH]1"
measured_number = -3.31

[[record]]
compound = "c1ccc(C(CCN2CCCCC2)c2ccccc2)cc1"
measured_number = 8.96

[[record]]
compound = "Cc1cc(C)[nH]n1"
measured_number = 4.32

[[record]]
compound = "CN1CC[C@]23c4c5ccc(OCc6ccccc6)c4O[C@H]2[C@@H](O)C=C[C@H]3[C@H]1C5"
measured_number = 8.07


---

conditions: basic group
In this section we review reported pKa values for a set of molecules.
Quantity name: pKa

[[record]]
compound_structure_string = "Cn1ncc2cncnc21"
quantity_name = "pKa"
measured_number = 2.5

[[record]]
compound_structure_string = "NCCCCCCCCCC(=O)[O-]"
quantity_name = "pKa"
measured_number = 11

[[record]]
compound_structure_string = "[NH3+]CCC(=O)NCCc1c[nH]cn1"
quantity_name = "pKa"
measured_number = 6.84

[[record]]
compound_structure_string = "Cc1ncc(CO)c(CO)c1O"
quantity_name = "pKa"
measured_number = 4.96

[[record]]
compound_structure_string = "Nc1ncc2[nH]c[nH+]c2n1"
quantity_name = "pKa"
measured_number = -0.28

[[record]]
compound_structure_string = "CNc1ncnc2[nH]ncc12"
quantity_name = "pKa"
measured_number = 4.53

[[record]]
compound_structure_string = "CN(C)CC(=O)[O-]"
quantity_name = "pKa"
measured_number = 9.81

[[record]]
compound_structure_string = "Cc1c(N)ccc2c1-c1c(ccc3ccccc13)C2"
quantity_name = "pKa"
measured_number = 4.49


---

conditions: basic group
Response key: condition met means pKa >= 8; condition not met means pKa < 8.

[[record]]
compound = "CCOc1ccc2[nH]c(C(C)C)nc2c1"
class_assignment = "condition not met"

[[record]]
compound = "CNCC(C)C[NH2+]C"
class_assignment = "condition met"

[[record]]
compound = "CCCn1cnc2ccccc21"
class_assignment = "condition not met"

[[record]]
compound = "CNc1cnccc1N"
class_assignment = "condition met"

[[record]]
compound = "Cc1ccc(Cl)cc1/C(=N/CCC[NH+](C)C)c1ccccc1"
class_assignment = "condition not met"

[[record]]
compound = "Cn1cc[nH+]c1-c1ccccn1"
class_assignment = "condition not met"

[[record]]
compound = "Oc1onc2c1CCNCC2"
class_assignment = "condition met"

[[record]]
compound = "CCCCCCCCCCCCCCN(CC(O)CC)CC(O)CC (centres undefined)"
class_assignment = "condition not met"

[[record]]
compound = "C1CC2CCCN2C1"
class_assignment = "condition met"


---

In this section we review reported pKa values for a set of compounds.
details: acidic group
Quantity name: pKa

[[record]]
compound_structure_string = "CC1=NCCc2c1[nH]c1ccccc21"
quantity_name = "pKa"
measured_number = 14.9

[[record]]
compound_structure_string = "O=[N+]([O-])c1ccc([Se](=O)O)cc1"
quantity_name = "pKa"
measured_number = 4

[[record]]
compound_structure_string = "On1nnc2c(Cl)cccc21"
quantity_name = "pKa"
measured_number = 3.9

[[record]]
compound_structure_string = "Cc1ccc(S(=O)(=O)NC(=O)OCc2ccc([N+](=O)[O-])cc2)cc1"
quantity_name = "pKa"
measured_number = 3.8

[[record]]
compound_structure_string = "O=C1CC(=O)CS(=O)(=O)C1"
quantity_name = "pKa"
measured_number = 2.72

[[record]]
compound_structure_string = "N#CC(C#N)=C(N)C(C#N)C#N"
quantity_name = "pKa"
measured_number = 2.58

[[record]]
compound_structure_string = "Cc1cc(=O)oc2ccc(O)cc12"
quantity_name = "pKa"
measured_number = 9.14


These measurements were taken from the pKa sets of Baltruschat and Czodrowski (2020).
